The origin of these recorded values is patent US6177437A.

Target: HSV1 uracil-DNA glycosylase (HSV1 UDG) (Human herpesvirus 1, UniProt P10186)
Construct: made in house
Sequence (P10186 whole entry): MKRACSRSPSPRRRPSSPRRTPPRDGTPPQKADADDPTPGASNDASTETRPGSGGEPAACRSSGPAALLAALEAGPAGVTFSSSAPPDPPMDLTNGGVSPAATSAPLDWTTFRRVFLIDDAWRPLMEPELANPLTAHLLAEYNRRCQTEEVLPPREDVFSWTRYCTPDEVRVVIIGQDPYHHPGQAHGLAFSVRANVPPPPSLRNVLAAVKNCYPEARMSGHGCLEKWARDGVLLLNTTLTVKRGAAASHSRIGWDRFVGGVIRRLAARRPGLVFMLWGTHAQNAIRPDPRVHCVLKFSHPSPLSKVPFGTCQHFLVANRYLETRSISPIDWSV
Assay: Inhibition of HSV1 uracil-DNA glycosylase, [3H]uracil release from [3H]dUMP-containing DNA
Assay type: biochemical
Details: text b184; read-out: IC50 HSV1 UDG
assay endpoint: pIC50
pIC50 is a log-scale quantity: -log10 of the concentration expressed in molar.

// query pIC50 value for entry Nc1cc(=O)[nH]c(=O)[nH]1 [6-Aminouracil, reference compound]
3.00

* * *

Target: HSV1 uracil-DNA glycosylase (HSV1 UDG) (Human herpesvirus 1, UniProt P10186)
Construct: made in house
Assay: Inhibition of HSV1 uracil-DNA glycosylase, [3H]uracil release from [3H]dUMP-containing DNA
Format: biochemical
Conditions: read-out: IC50 HSV1-UDG
assay endpoint: pIC50
pIC50 is a log-scale quantity: -log10 of the concentration expressed in molar.

// query pIC50 value for entry CCCCCCc1ccc(Nc2cc(=O)[nH]c(=O)n2CCCO)cc1
4.05

* * *

Target: human (HeLa) uracil-DNA glycosylase (Homo sapiens, UniProt P13051)
Construct: The viral and human (HeLa) uracil-DNA glycosylases are isolated with conventional enzyme purification protocols; endogenous in cells; host or cells: HeLa
Sequence (P13051 whole entry): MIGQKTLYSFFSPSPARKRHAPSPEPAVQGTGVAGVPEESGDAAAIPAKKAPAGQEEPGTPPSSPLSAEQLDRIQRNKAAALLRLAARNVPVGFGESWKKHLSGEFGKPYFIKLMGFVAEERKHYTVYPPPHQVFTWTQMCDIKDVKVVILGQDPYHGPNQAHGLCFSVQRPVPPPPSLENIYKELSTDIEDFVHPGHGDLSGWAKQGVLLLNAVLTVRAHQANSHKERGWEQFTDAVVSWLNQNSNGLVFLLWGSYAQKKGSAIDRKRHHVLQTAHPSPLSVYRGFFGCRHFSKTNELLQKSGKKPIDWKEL
Assay: Inhibition of human (HeLa) uracil-DNA glycosylase, [3H]uracil release from [3H]dUMP-containing DNA
Assay type: biochemical
Conditions: Table 3; read-out: IC50 Human-UDG
assay endpoint: IC50

Worked examples, 4 compounds total:
smiles text | IC50
CCCCCCCCc1ccc(Oc2cc(=O)[nH]c(=O)[nH]2)cc1 | > 300 µM
CCCCCCc1ccc(Nc2cc(=O)[nH]c(=O)n2CCC)cc1 | > 200 µM
CCCCCCCCCCc1ccc(Nc2cc(O)nc(O)n2)cc1 | > 200 µM
CCCCCCc1ccc(Nc2cc(=O)[nH]c(=O)n2CC)cc1 | > 200 µM

Proceeding to the next compound to report its IC50.
// query IC50 value for entry CCCCCCc1ccc(Nc2cc(=O)[nH]c(=O)n2C)cc1
> 200 µM
